# tested_system: recombinant METTL3/METTL14 complex (Homo sapiens, UniProt Q86U44)
# Sequence (Q86U44 whole entry): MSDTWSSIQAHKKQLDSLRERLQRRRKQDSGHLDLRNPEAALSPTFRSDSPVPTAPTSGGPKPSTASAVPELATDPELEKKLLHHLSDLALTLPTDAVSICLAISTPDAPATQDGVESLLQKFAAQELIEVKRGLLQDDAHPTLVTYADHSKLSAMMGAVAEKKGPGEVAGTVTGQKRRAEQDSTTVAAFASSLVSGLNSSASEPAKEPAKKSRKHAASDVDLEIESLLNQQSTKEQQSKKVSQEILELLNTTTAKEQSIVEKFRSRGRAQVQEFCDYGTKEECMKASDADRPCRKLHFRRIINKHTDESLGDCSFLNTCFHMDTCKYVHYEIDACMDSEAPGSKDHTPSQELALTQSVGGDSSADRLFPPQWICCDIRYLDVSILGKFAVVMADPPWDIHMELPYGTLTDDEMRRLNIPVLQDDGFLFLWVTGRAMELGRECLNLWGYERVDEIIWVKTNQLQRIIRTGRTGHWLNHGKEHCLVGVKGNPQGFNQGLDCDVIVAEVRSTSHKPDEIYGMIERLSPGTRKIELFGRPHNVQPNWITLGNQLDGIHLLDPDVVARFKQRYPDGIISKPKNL
# Sequence (Q9HCE5 whole entry partner): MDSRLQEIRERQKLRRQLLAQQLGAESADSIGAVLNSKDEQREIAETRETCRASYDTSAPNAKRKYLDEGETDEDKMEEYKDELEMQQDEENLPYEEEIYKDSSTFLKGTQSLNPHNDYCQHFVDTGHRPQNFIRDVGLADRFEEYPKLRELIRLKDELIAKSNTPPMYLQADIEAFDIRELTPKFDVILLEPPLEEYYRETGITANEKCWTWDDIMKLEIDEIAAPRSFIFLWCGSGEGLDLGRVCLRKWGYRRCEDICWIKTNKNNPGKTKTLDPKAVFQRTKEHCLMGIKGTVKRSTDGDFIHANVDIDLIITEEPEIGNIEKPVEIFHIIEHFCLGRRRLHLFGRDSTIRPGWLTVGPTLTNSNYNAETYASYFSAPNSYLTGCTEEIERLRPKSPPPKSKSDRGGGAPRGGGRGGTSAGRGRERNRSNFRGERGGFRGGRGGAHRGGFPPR
# test_protocol: METTL3/14 Scintillation Proximity Assay (SPA), RNA methyltransferase activity
# recorded_conditions: 5.31 nM METTL3/14 complex, 250 nM RNA substrate, 1 μM 3H-SAM, 90 min; for compounds marked * best of the two separated forms

# molecule, IC50
measured = [
    ("CC1CCCN1c1cncc(-c2cn(C(C)n3ccc(N4CCC[C@@H](NCC5CCC5)C4)cc3=O)nn2)c1 (mixture of isomers) [Compound 172]", "50 to 500 nM"),
    ("COc1cc(-c2nnn(C(C)n3ccc(N4CCC[C@@H](NCC5CCC5)C4)cc3=O)n2)c2cn[nH]c2c1 (single isomer, unassigned) [Compound 210]", "≤ 50 nM"),
    ("CC(n1cnc(-c2cc(N(C)C)cnn2)c1)n1ccc(N2CCC[C@@H](NCC3CC3)C2)cc1=O (single isomer, unassigned) [Compound 243]", "≤ 50 nM"),
]
